- subject of test: Human coagulation factor (F)XI (Homo sapiens, UniProt P03951)
- Construct: Enzyme Research Laboratories (FXIIa) HCXI-150 (FXI); HFXIIa (FXIIa)
- Sequence (P03951 19-625): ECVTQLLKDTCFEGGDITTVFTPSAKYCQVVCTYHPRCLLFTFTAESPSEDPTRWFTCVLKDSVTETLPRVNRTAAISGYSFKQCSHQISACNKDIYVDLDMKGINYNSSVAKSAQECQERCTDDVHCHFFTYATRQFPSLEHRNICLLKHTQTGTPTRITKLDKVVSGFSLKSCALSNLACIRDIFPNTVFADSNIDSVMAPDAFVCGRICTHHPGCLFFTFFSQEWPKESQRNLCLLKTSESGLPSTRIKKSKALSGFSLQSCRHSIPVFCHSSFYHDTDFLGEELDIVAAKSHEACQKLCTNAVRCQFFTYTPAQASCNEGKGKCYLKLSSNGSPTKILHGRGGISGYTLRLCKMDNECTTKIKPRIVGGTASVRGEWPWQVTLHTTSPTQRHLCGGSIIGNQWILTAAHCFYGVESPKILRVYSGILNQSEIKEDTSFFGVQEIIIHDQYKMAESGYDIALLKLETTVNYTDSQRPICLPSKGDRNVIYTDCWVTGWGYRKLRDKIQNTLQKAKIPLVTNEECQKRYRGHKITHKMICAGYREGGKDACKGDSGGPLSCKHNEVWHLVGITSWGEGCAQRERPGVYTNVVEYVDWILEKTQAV
- procedure text: Inhibition of FXIIa mediated activation of FXI (activation of human Factor XI to XIa by human Factor α-XIIa)
- reported conditions: human FXI pre-incubated with compound 30 min at 22° C., activation by human FXIIa 60 min, z-GPR-AFC substrate fluorescence, 4 parameter logistic fit; read-out: Inhibition of FXIIa meditated activation of FXI
parameter: EC50 (nM)

Example entries and their recorded answers appear below.
>>> meas_value("O=C(c1cc(C(=O)N2CCCCC2)c2cc(OCCCc3cccnc3)ccc2n1)N1CCC(n2cccn2)CC1")
18.8
>>> meas_value("N#CC1(c2ccccc2)CCN(C(=O)c2cc(C(=O)N3CCCCC3)c3cc(OCc4cccc([N+](=O)[O-])c4)ccc3n2)CC1")
39.7
>>> meas_value("O=C(c1cc(C(=O)N2CCCCC2)c2cc(OCc3nc4ccccc4s3)c(F)cc2n1)N1CCC(n2cccn2)CC1")
18.8

[A] N#CC1(c2ccccc2)CCN(C(=O)c2cc(C(=O)N3CCCCC3)c3cc(OCc4ccc(F)cc4[N+](=O)[O-])ccc3n2)CC1
[B] O=C(c1cc(C(=O)N2CCCCC2)c2cc(OCc3nc4ccccc4s3)ccc2n1)N1CCC2(CC1)CC2(F)F
Query :: Sorting ascending by EC50, which comes first: A or B ? # reply format: chosen label
Result :: B
(B: 19.1 nM, A: 38.9 nM)

[1] O=C(c1cc(C(=O)N2CCCCC2)c2cc(OCc3nc4ccccc4s3)ccc2n1)N1CCC(n2cc(F)cn2)CC1
[2] N#Cc1ccccc1COc1ccc2nc(C(=O)N3CCC(C#N)(c4ccccc4)CC3)cc(C(=O)N3CCCCC3)c2c1
Query :: Identify the entry with the larger EC50. Options: 1 and 2 Please indicate the selected item by its label.
Result :: 1

---

- subject of test: Human coagulation factor (F)XI (Homo sapiens, UniProt P03951)
- Construct: Enzyme Research Laboratories (FXIIa) HCXI-150 (FXI); HFXIIa (FXIIa)
- procedure text: Inhibition of FXIIa mediated activation of FXI (activation of human Factor XI to XIa by human Factor α-XIIa)
- reported conditions: human FXI pre-incubated with compound 30 min at 22° C., activation by human FXIIa 60 min, z-GPR-AFC substrate fluorescence, 4 parameter logistic fit; read-out: Inhibition of FXIIa meditated activation of FXI
parameter: EC50 (nM)

>>> meas_value("N#CC1(c2ccccc2)CCN(C(=O)c2cc(C(=O)N3CCCCC3)c3cc(OCCCn4cccc4)ccc3n2)CC1")
33.7
>>> meas_value("Cn1c(COc2ccc3nc(C(=O)N4CCC(C#N)(c5ccccc5)CC4)cc(C(=O)N4CCCCC4)c3c2)nc2ccccc21")
33.1
>>> meas_value("CN(C(=O)c1cc(C(=O)N2CCC(n3cccn3)CC2)nc2ccc(OCc3nc4ccccc4s3)cc12)C1CC1")
71.5
>>> meas_value("N#Cc1cccc(COc2ccc3nc(C(=O)N4CCC(C#N)(c5ccccc5)CC4)cc(C(=O)N4CCCCC4)c3c2)c1")
46.9
>>> meas_value("CC(=O)NC1CC2(CCN(C(=O)c3cc(C(=O)N4CCCCC4)c4cc(OCc5nc6ccccc6s5)ccc4n3)CC2)C1")
38.5
>>> meas_value("Cc1c(COc2ccc3nc(C(=O)N4CCC(C#N)(c5ccccc5)CC4)cc(C(=O)N(C)C)c3c2)ccc2c1COC2=O")
39.6
>>> meas_value("O=C(c1cc(C(=O)N2CCCCC2)c2cc(OCc3cn4ccccc4n3)ccc2n1)N1CCC(n2cccn2)CC1")
34.2
>>> meas_value("COc1ccc(COc2ccc3nc(C(=O)N4CCC(C#N)(c5ccccc5)CC4)cc(C(=O)N4CCCCC4)c3c2)c(C(F)(F)F)c1")
48.7
>>> meas_value("N#CC1(c2ccccc2)CCN(C(=O)c2cc(C(=O)N3CCCCC3)c3cc(OCc4ccc(-c5nnco5)cc4)ccc3n2)CC1")
41.4
>>> meas_value("N#Cc1ccc(COc2ccc3nc(C(=O)N4CCC(n5cccn5)CC4)cc(C(=O)N4CCCCC4)c3c2)cc1")
39.6

[1] O=C(c1cc(C(=O)N2CCCCC2)c2cc(OCc3cc4ccccn4n3)ccc2n1)N1CCC(n2cccn2)CC1
[2] CS(=O)(=O)N1CCN(C(=O)c2cc(C(=O)N3CCCCC3)c3cc(OCc4nc5ccccc5s4)ccc3n2)CC1
Query :: Between 1 and 2 , whose measured EC50 reads higher? Select an item and report its label.
Result :: 1
(1: 44.6 nM, 2: 19.1 nM)
